Taken from the RNAGym collection of RNA variant scans (doi:10.7554/elife.80360).

B1: HDV Ribozyme (parent)
chain: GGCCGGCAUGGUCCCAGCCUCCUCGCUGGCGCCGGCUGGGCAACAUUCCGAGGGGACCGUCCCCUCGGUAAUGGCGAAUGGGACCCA

variants of: B1; assay: self-cleavage, relative activity (ratio to wild type); higher = more cleavage; co-transcriptional
self-cleavage for assorted variants
Give only the figure.

The following variants have reported results that may help.
{"columns": ["mutation.name", "property.name", "value.measured"],
 "data": [
  ["G6C G55C", "self-cleavage", 0.308],
  ["A51U A56U", "self-cleavage", 1.25],
  ["C63U A70G", "self-cleavage", 1.02],
  ["C13G G80C", "self-cleavage", 0.0997],
  ["A51U U72A", "self-cleavage", 0.628],
  ["A16G A87U", "self-cleavage", 0.939],
  ["U20A U79A", "self-cleavage", 0.0573],
  ["C15U G55A", "self-cleavage", 0.889],
  ["C21A C66U", "self-cleavage", 0.0683],
  ["C3U A8C", "self-cleavage", 0.269]
]}

Incoming: Recorded self-cleavage of U60C C86G , please.
Outgoing: 0.982

Incoming: Recorded self-cleavage of U60C A70U , please.
Outgoing: 1.15

Incoming: Recorded self-cleavage of A16C C18U , please.
Outgoing: 0.375

Incoming: Recorded self-cleavage of A56U U72A , please.
Outgoing: 0.764

Incoming: Recorded self-cleavage of C24G C36A , please.
Outgoing: 0

Incoming: Recorded self-cleavage of G2C G11C , please.
Outgoing: 0.155

Incoming: Recorded self-cleavage of C24U G55C , please.
Outgoing: 0.729

Incoming: Recorded self-cleavage of G67C A77C , please.
Outgoing: 0.227

Incoming: Recorded self-cleavage of G28C G73A , please.
Outgoing: 0

Incoming: Recorded self-cleavage of C58A C61U , please.
Outgoing: 0.972

Incoming: Recorded self-cleavage of G67U A87U , please.
Outgoing: 0.898

Incoming: Recorded self-cleavage of A8U G31U , please.
Outgoing: 0.0475
